Test system: Renal cancer cell line ACHN cell
Assay: Growth inhibitory effect against cancer cell lines (3H-thymidine uptake), ACHN
Format: cell-based
Details: inhibition of 3H-thymidine uptake; test substance 18 hrs, then 3H-thymidine 6 hrs; triplicate
quantity: IC50

# input compound: Cc1c(=O)n(C)c(Nc2ccc(I)cc2F)c2c(=O)n(C3CC3)c(=O)n(-c3ccc4c(c3)ncn4C)c12 [Example 4-112] ; wanted: its IC50
100 to 1000 nM
